Molecular target: h5-HT transporter (Homo sapiens, UniProt P31645)
Construct: Human platelet membranes (Oceanix Biosciences Corporation, Hanover, Md., USA) were thawed; tissue Oceanix Biosciences Corporation; host or cells: human platelet membranes
Sequence (P31645 whole entry): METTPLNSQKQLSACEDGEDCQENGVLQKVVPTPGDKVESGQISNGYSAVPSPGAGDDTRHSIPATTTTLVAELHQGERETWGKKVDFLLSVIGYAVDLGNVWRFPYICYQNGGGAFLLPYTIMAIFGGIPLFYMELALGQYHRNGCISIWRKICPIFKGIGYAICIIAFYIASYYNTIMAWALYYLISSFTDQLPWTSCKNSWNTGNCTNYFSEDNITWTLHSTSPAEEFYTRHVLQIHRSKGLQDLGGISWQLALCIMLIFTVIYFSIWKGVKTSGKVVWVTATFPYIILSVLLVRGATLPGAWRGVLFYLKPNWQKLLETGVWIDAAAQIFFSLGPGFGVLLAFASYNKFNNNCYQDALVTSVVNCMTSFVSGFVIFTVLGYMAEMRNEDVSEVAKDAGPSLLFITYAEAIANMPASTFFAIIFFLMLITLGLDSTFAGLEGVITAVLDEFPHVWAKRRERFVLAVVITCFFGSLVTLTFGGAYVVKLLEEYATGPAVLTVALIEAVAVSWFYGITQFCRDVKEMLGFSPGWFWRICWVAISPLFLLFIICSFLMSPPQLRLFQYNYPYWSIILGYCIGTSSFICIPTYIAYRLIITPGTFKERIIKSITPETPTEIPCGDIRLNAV
Test: Radioligand binding experiment for 5-HT transporter ([3H]paroxetine)
Details: human platelet membranes; [3H]paroxetine 0.5 nM; read-out: 5-HTT (converted)
Please go through the items and note down their IC50.
# value in nM; strip the unit string

Query: Find the measured IC50 of COc1cc2c(c(I)c1OC)OCC1C2=NOC1CN1CCN(CC(C)=Cc2ccc(F)cc2)CC1 (stereo not drawn) and report it.
Result: 50.1

Query: Look up and state reported IC50 for COc1cccc2c1OC[C@@H]1C2=NO[C@H]1CN1CCN(C/C(C)=C/c2ccccc2)CC1 (relative stereo)
Result: 50.1

Query: Give the reported value of IC50 for this record: C/C(=C\c1ccccc1)CN1CCN(C[C@@H]2ON=C3c4cccc(O)c4OC[C@H]32)CC1 (relative stereo)
Result: 50.1
